- EXPERIMENT SUMMARY: Diarrheal effects in rats
- ASSAY CONDITIONS: rat, in vivo, po
MEASURED METRIC: TD50 at 8 h (mg/kg)
Numbers only; they are read as mg/kg.

Would you please look over these solved cases?
CCCCC(C)(O)C/C=C/[C@H]1[C@H](O)CC(=O)[C@@H]1CCCCCCC(=O)OC (mixture of isomers) : 0.36
CCCCCCC(C)(O)C/C=C/[C@H]1[C@H](O)CC(=O)[C@@H]1CCCCCCC(=O)OC (mixture of isomers) : 2.7

TD50 at 8 h reading for CCCCC(C)(O)C/C=C/[C@H]1[C@H](O)CC(=O)[C@@H]1C/C=C\C=CCC(=O)OC (relative stereo) : 0.57

TD50 at 8 h reading for CCCCC(C)(O)C/C=C/[C@H]1[C@H](O)CC(=O)[C@@H]1C/C=C\CCCC(=O)OC (mixture of isomers) : 0.173

TD50 at 8 h reading for CCCCC(C)(O)C/C=C/[C@H]1[C@H](O)CC(=O)[C@@H]1CC/C=C\CCC(=O)OC (mixture of isomers) : 0.049

TD50 at 8 h reading for CCCCC(C)(O)C/C=C/[C@H]1[C@H](O)CC(=O)[C@@H]1CCCC(C)(C)CCC(=O)OC (mixture of isomers) : 0.185
